- assay-procedure: Human HepG2 cell viability assay in 384 well format
- Type: toxicity, cell-based
- Design: dose 125 nL, time 70.5 hour; concentration not given beside the values
- condition-info: HepG2 cells, read-out: Inhibition
reported-property: cytotoxicity at 70.5 h (%)
Numbers only, in %.

Query: GET /values?readout=cytotoxicity at 70.5 h&item= NC(=O)CCNC(=O)NCC1(c2ccccc2Cl)CCC1
Reply: -2.77

Query: Reported cytotoxicity at 70.5 h for CN1CC(=O)N(c2cnn(C)c2)CC12CCN(Cc1nccn1C)C2 (stereo not drawn) : what is it?
Reply: -4.58

Query: Look at this compound and give its reported cytotoxicity at 70.5 h. CN(CC(=O)NC(c1ccc(F)cc1)C(F)(F)F)S(C)(=O)=O (stereo not drawn)
Reply: -0.794

Query: // cytotoxicity at 70.5 h lookup, key: CC1CCCN(C(=O)c2ccc(-c3ccco3)o2)C1 (stereo not drawn)
Reply: -22.7

Query: Can you look up the measured cytotoxicity at 70.5 h of CSc1ccc(CN(C)Cc2noc(C(C)(C)C)n2)cc1 for me?
Reply: -6.11

// for each compound below, give its cytotoxicity at 70.5 h
1. c1ccc(Cc2nc(CN3CCCC3Cn3cncn3)cs2)cc1 (stereo not drawn)
2. CCS(=O)(=O)Nc1ccc2oc(C)c(C(=O)OC)c2c1
3. CCNC(=O)[C@@H]1C[C@H](NC(=O)Cc2ccsc2)CN1Cc1ccc(C)o1
4. c1cnc(N2CCO[C@H]3CN(CC4CCCC4)C[C@H]32)cn1
5. COc1cccc(N2CCN(Cc3ccc4ccn(C)c4c3)CC2=O)c1
6. CC(=O)N1CCCC1CCc1ccc(Cl)nn1 (stereo not drawn)
7. CCn1ccc(C(=O)N2CCCN(Cc3ccccc3F)CC2)cc1=O

Reply:
1. -7.1
2. -15
3. -8.83
4. 2.36
5. -5.61
6. -2.45
7. 17.5

Give me cytotoxicity at 70.5 h for each of these compounds, listed below.
1. Cc1cc(NC(=O)CN2CCCC2c2noc(C3CC3)n2)n(C)n1 (stereo not drawn)
2. c1cc2c(cc1C[C@@H]1CC[C@H](CN3CCCOCC3)O1)OCO2
3. CN(CCCc1cc(-c2ccccc2)no1)S(C)(=O)=O
4. Cc1nc(CN2CCCN(C(=O)CCc3ccco3)CC2)cs1

Reply:
[-10.4, -5.03, 8.59, -12.4]

Hi! Can you tell me cytotoxicity at 70.5 h for each of these compounds?
1. CN(CC(F)(F)F)C(=O)CNC(=O)Cc1ccc(O)cc1Cl
2. CCC(C)NC(=O)Cn1ncc2c1c(C)nn2CC (stereo not drawn)
3. COCCC(=O)N1CC[C@@H](N(C)C)[C@@H]1Cc1ccccc1

Reply:
-9.7
22.8
-3.88

Record cytotoxicity at 70.5 h per entry; entries follow.
1. CC(C)(C)CC(=O)Nc1ccccc1SCC(N)=O
2. O=C(c1ccc(N2CCCC2)nc1)N1CCCC(c2nccs2)C1 (stereo not drawn)
3. CCc1nc(CN(CC(N)=O)C(C)C)cs1
4. CCc1cnc(CN(C)C2CCN(Cc3nnc(C4CC4)n3C)C2)o1 (stereo not drawn)

Reply:
1: -3.84; 2: -20.6; 3: 18.1; 4: -2.36

Required: cytotoxicity at 70.5 h, one value per compound below.
1. CN(C)C(=O)c1cccc(CN2CCN(CC(O)C(C)(C)C)CC2)c1 (stereo not drawn)
2. Cc1ccc(CN2Cc3c(C(=O)N(C)C)nn(C)c3C2)s1
3. CCCN(CCOC)C(=O)c1cc(Cn2c(C)nc3ccccc32)[nH]n1
4. CCC(C)(CNC(=O)Nc1nccs1)N1CCOCC1 (stereo not drawn)
5. Cc1nn(-c2ccc(C(=O)O)cc2)c2c1C(c1cccs1)SCC(=O)N2 (stereo not drawn)

Reply:
1: -11.5; 2: -3.13; 3: -2.8; 4: -8.6; 5: 0.275
